Molecular target: T. cruzi glucokinase (TcGlcK) (Trypanosoma cruzi, UniProt Q4E4E1)
Construct: precedes the start methionine and the 9-residue segment VGKKQKAQL at the C-terminal region was not included; made in house; host or cells: E. coli BL21(DE3)
Sequence (Q4E4E1 entry or part of it): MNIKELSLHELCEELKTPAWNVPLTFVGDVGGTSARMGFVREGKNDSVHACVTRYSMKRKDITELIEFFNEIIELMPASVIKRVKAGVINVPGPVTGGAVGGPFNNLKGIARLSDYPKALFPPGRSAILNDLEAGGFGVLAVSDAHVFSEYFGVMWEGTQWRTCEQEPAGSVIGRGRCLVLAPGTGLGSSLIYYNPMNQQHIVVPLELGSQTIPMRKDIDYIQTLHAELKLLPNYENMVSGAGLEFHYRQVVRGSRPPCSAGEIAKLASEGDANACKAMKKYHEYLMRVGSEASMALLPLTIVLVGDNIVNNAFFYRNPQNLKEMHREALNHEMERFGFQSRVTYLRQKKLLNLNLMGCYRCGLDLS
Assay: Two-enzyme coupled colorimetric glucokinase activity assay (G6PDH/NADPH), TcGlcK
Type: biochemical
Details: colorimetric assay, measurements in triplicate, 22° C., substrate D-glucose; compounds tested as racemic mixtures (n ≥ 2); read-out: Ki versus substrate, TcGlcK
Protocol: Enzymatic activity of glucokinase from T. cruzi and H. sapiens were both performed using a similar protocol but had minor modifications. In general, a two-enzyme coupled colorimetric assay was performed, as previously described (4). The assay is based on the formation of NADPH (λmax≈340 nm; ϵ340=6,220 M^−1 cm^−1) (5). In the 1st step of the assay, glucokinase/hexokinase in the presence of Mg^2+, ATP, and D-glucose react to form glucose-6-phosphate (G-6-P) and ADP. […]
I'd be grateful if you could share measured pKi for these entries.
// field semantics: pKi = negative decimal log of concentration (mol/L)

## Input // output pKi; input O=C(N[C@H]1C(O)O[C@H](CO)[C@@H](O)[C@@H]1O)c1ccccc1 (some centres unmarked) ; system T. cruzi glucokinase (TcGlcK) (Trypanosoma cruzi, UniProt Q4E4E1)
## Output 4.49

## Input // output pKi; input O=C(N[C@H]1C(O)O[C@H](CO)[C@@H](O)[C@@H]1O)OCC1=Cc2ccccc2S1(=O)=O (mixture of isomers) ; system T. cruzi glucokinase (TcGlcK) (Trypanosoma cruzi, UniProt Q4E4E1)
## Output 5.39
